Please respond with reported apparent KD of MS2 coat protein for every item in the list.
- Test system: MS2 coat protein
- test summary: apparent KD of MS2 coat protein; designed switch direction (-1 OFF switch, 1 ON switch): 1; higher = weaker reporter binding
- measurement parameters: input ligand: microRNA oligo, concentration not stated
The answer is to be given in µM; state only the numeric part.

Which value of apparent KD of MS2 coat protein has been reported for UGGUACAUGGGAGGAUAUCUCAUGGAGACAUGAGGAUCACCCAUGUAGAUGGCCGGUAACCGGAGAGAGAAGGCCCAUGUACCU [JL SSNG1 3.67] (Eterna round: R96, puzzle: Same State NG 2) in the records?
0.152

Value lookup for apparent KD of MS2 coat protein; key = GCGGUAACUCACAUGAGGAUCACCCAUGUUCCGGAAACGGCACAGGAUAUCUGUCCGAAAAGGUCAGAGAAGGGUGAAAUCCGC [Fiskers NG3ss - 91] (Eterna round: R96, puzzle: Same State NG 3)
0.29

# lookup: apparent KD of MS2 coat protein of CAGUAUCGCGGAGGAUAUGGGCUGAGACCGGAGCAACUCUGGUCAACAUGAGGAUCACCCAUGUCCCAGAAGGCCGCGAUGCUG [Enquoninso] (Eterna round: R96, puzzle: Same State NG 2)
0.0622

Query: apparent KD of MS2 coat protein; subject: AUAAAACAUGAGGAUCACCCAUGUCAACAAAGUCGAGGAUAUGGGCAAAGAAAAUAAGAACCAGAAGGCGAAUAAU [salish99_ss1_r3_056] (Eterna round: R96, puzzle: Same State 1)
0.245

May I ask what apparent KD of MS2 coat protein has been recorded for AAUCCUGUCACAGGAUAUCCAAGGUAAACCCUCGGAGAAGGGUGAUAGUCUAACAAACACACACAUGAGGAUCACCCAUGUUAA [Usxeus] (Eterna round: R96, puzzle: Same State NG 1) ?
0.0401

---

- Tested on: K4 kissing-loop RNA reporter;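 note: bound reporter read as fluorescence of individual clusters on recovered sequencing chips by microscopy, with normalized cluster intensities fitted with a binding model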
- test summary: apparent KD of K4 kissing-loop reporter; higher = weaker reporter binding
- measurement parameters: Eterna round: R107; input ligand: arginine 13.2 mM
Entry flag: met if apparent KD of K4 kissing-loop reporter reaches 0.2 µM; not met if it does not.

Form field: apparent KD of K4 kissing-loop reporter at least 0.2 µM? Entry: AGCGCUGCCUGAGGAUAUAGAAACGAGUGAUGUUCGUGGAUUGAUACCAGUGAUGUUGGCCUAUUUCUAGAAGGCAGGCGAUCGU [Exclusion FMN B GF2]
not met

Answer whether apparent KD of K4 kissing-loop reporter of AUUAUAAAGGCGGCCGCCACUAGUGAUGUUAGUGACUAUAGUAUUAUCUAUAGAAUAAAAUAAAAUAGGACCGGGCCAAAAUAUU [AstrosExTryB#2] is greater than or equal to 0.2 µM.
met

# check: apparent KD of K4 kissing-loop reporter of UCGAGUGAUGUUCGAUUUCAGUGAAGAGAUACCAGCCGCAGUGUAGGCCCUUGGCAGCUCGGCUAUUAUGACAUAUGCAGUUUAG [theeternabot_sameState_KL_Theo_A_29] is greater than or equal to 0.2 µM
not met

Identify whether the reported apparent KD of K4 kissing-loop reporter of the following sequence is 0.2 µM or greater: AUACAGCGAAGCGCUAGUGAUGUUAGCGAAGGAGCGACUCAGGAGUCAGGUAGGUCGCGCUAAACAGGUUACGAGAGUAACCAGU [Arg A Ex t1]
not met

Does the reported apparent KD of K4 kissing-loop reporter for UCCUAGGCUCGAAAGAGCCUAGGAUAUACUCAGGAUAUCCGGAAACGGAGAAGGGAGUAACUAGUGAUGUUAGGGAUUCCCUAUU fall at or above the 0.2 µM mark?
not met

Hi team, for CGAUAGGGAAGUCGAUUGCUCACUGGUAAACGAGGACCGGUACGGCCGCCACUCGGGUCCAGUGAUGUUGGACUUUGUGGCGGGC [Edladian] , is the recorded apparent KD of K4 kissing-loop reporter at or above 0.2 µM?
not met

Determine whether this sequence has apparent KD of K4 kissing-loop reporter no lower than 0.2 µM: ACGCCGAGGACGGCCGCCACUAUGACGAAGUCCGUUCCUAUUACUGCGCGAGUGAUGUUCACGACUAGGACCGGGUCUAUGAGCU [theeternabot_exclusion_KL_Trp_B_28]
met

Does the reported apparent KD of K4 kissing-loop reporter for AAGCAGUUCUCAAAGAGUACUGCAGGACAGCAGGAUAUAGUGAUGUUGAGAAGGGCUGUCCCGUCUGCAUGAAACAUGCAGACGA [Simply curious] fall at or above the 0.2 µM mark?
met

Tell me whether apparent KD of K4 kissing-loop reporter is at least 0.2 µM here: ACUGAGCAUGCGGCCGCCACUUCAGAACGUCGCCCAAAGGGCGACGCCUCCACAGUGAUGUUGUGGAGGACCGGGCAUGUUCAGA [Omei KL Tryp B Exc A v2]
not met

State whether the measured apparent KD of K4 kissing-loop reporter reaches 0.2 µM, counting equality as reaching it, for GCAGUCAAUCAACCACGAAAGUGGAUGGAUACCAGCCCGAAACCGGGCCCUUGGCAGCCAGUGAUGUUGGAAGACUGCUUUAAAA [#SwitchBubble 15 #K4Late]
met

Check this sequence for apparent KD of K4 kissing-loop reporter at or above 0.2 µM: GGCAUGGUGACGCGGCGGCCAUGCACUUGGGAGGAUAUGUUUCGUGACAGAAGGCCCAGUGAUGUUGGGUCUGUUCAAAAGGACU [Riteveat]
not met

Quick check: does AAGUAGCUCUCGGCCGCCACUCCUCAGUGAUGUUGAGAUUUUUUCUGCCAAUUGGCGUUUUUUUAGAGGACCGGGAGAGCUACAA [AK1 SS Tryptophan B] have apparent KD of K4 kissing-loop reporter greater than or equal to 0.2 µM?
met

Reported apparent KD of K4 kissing-loop reporter at or above 0.2 µM? UGUCAUUGGUCUGAUACCAGAAGAUAAUCUGGAGUGAUGUUCCAAGUACGACAAAGUCGCUUCCCUUGGCAGCAGACCGAUGACU [TheoBS 19 #SwitchBubble 13 #StaticStem]
met

Reported apparent KD of K4 kissing-loop reporter at or above 0.2 µM? CGGAUCGCAUCAGGAUAUCUCUCAUCAGUGAUGUUGGUGAAGCGUACGCGAAAGCGUACGCAGAUGAGAGAAGGGAUGCGAUCCG
met

Form field: apparent KD of K4 kissing-loop reporter at least 0.2 µM? Entry: AAAAUAAAGGAGUGAUGUUCCAUAACGGAUACCAGCCACGAAAGUGGCCCUUGGCAGCUGUGCCAGUGGACGAAUAACGUCCACA [#OpenEnded 6 #StaticStem #K4Early]
met

Answer whether apparent KD of K4 kissing-loop reporter of AGAGAUAUAUGAGGAUAUGGGUUUGUUAAUGAGUUAGUUUUAGUGUUGUUUGGUUAGUGAUGUUAUUUAGAAGGCGUGAGUGAUG [aatrmullin] is greater than or equal to 0.2 µM.
not met

Could you verify whether the entry UUUAUUAAGACGGCCGCCACUGAAUCAUAGUGAUGUUAUGAUAUAAUUUUAGUGAUUUUGAUUAGCAGGACCGGGUCAAUUAUUA [#26 K4 Tryptophan B Exclusion] shows apparent KD of K4 kissing-loop reporter of no less than 0.2 µM?
not met

Given the entry AUAUUACUAUACGAUACCAGCCCUAACACUAGUGACGCGGUAAUAGUGAUGUUGUAACCCGGCCCUUGGCAGCGUAAUCAUGGAA [theeternabot_sameState_KL_Theo_B_7] , answer whether its apparent KD of K4 kissing-loop reporter meets or surpasses 0.2 µM.
met

Assess whether reported apparent KD of K4 kissing-loop reporter for GGAAGGAAGGAAACCAACCAACCAACCGAUACCAGCGGAAGAGAACGCCCUUGGCAGCGGAGAAAGCCAGUGAUGUUGGAAAGAA sits at 0.2 µM or higher.
met

For this sequence, is measured apparent KD of K4 kissing-loop reporter 0.2 µM or higher? UAAAUCACACGAGAUACCAGCCAAACCGAACUUGAGCACUAUAGUGAUGUUAUAUUGCGAGGCCCUUGGCAGCUCAAUAGAACAA [theeternabot_sameState_KL_Theo_B_11]
not met

Determine whether measured apparent KD of K4 kissing-loop reporter meets or exceeds 0.2 µM for UCGCCCGAUGGAGAUACCAGCAGUUGUGCAGUGAUGUUGCACAAGUACUCGCUCCAUUGCUGCCCUUGGCAGCUCCCGGCAAACA [Enraed]
not met

Could you tell me if the measured apparent KD of K4 kissing-loop reporter of CACCCUAGUUCAGAUACCAGACUAGAGACAGUGAUGUUGUCACAUCCUAAAUUGGGUGUAGUCCCUUGGCAGCUGAGUAAUCUGC [Theo B/Ex/SS double] reaches 0.2 µM or more?
met

Check if apparent KD of K4 kissing-loop reporter >= 0.2 µM (inclusive). Item: UGUGAUGUGUAGUGUUAUGUUUUGAGGGAUACCAGAGUGUUUUUAUUCCCUUGGCAGCUUGAGUGAUGUUUGAUGUUGUUGUUGU [knnumullin]
not met
